- Tested on: UO-31 renal
- protocol.text: NCI-60 one-dose screen, 48 h (100 = growth as untreated, 0 = no growth, -100 = all killed)
- applied.conditions: 10 µM
This is part of a sample that, as a whole, favours compounds with a hit. Of some 83,000 tested, about 20% had one in any assay. Active and inactive are the calls of the source. The calls were made as follows: active = growth percent below 10; inactive = the rest.

- compound: "O=c1cc(-c2ccccc2)[nH]c2c1CCCC2"
  growth: "50.8% (inactive)"
- compound: "CC1(C)OC(=O)C(c2ccsc2)C(=O)O1"
  growth: "84.4% (inactive)"
- compound: "CC(C)(N)COS(=O)(=O)O"
  growth: "100% (inactive)"
- compound: "C=CCCCCCCCCCOC(C)=O"
  growth: "92.4% (inactive)"
- compound: "O=c1cc(-c2ccccc2)oc2c1ccc1ccccc12"
  growth: "58.9% (inactive)"
- compound: "O=C(O)CCC(NC(=O)OCc1ccccc1)C(=O)O (stereo not drawn)"
  growth: "94.9% (inactive)"
- compound: "COc1ccc(C)cc1OC"
  growth: "89.8% (inactive)"
- compound: "COc1ccc(C(=O)C(Br)C(Br)C(=O)O)cc1 (stereo not drawn)"
  growth: "102% (inactive)"
- compound: "COC(=O)c1ccc(NC(=O)CCl)cc1"
  growth: "107% (inactive)"
- compound: "O=C(Cc1ccc(OCc2ccccc2)cc1)NCc1ccc2c(c1)OCO2"
  growth: "73.7% (inactive)"
- compound: "CC1(C)N=C(N)N=C(N)N1c1cccc(Br)c1"
  growth: "50.2% (inactive)"
- compound: "O=[N+]([O-])c1ccc(N=Nc2ccc(O)c3ccccc23)cc1"
  growth: "24% (inactive)"
- compound: "CCOC(=O)C(C#N)Cc1ccccc1 (stereo not drawn)"
  growth: "94.5% (inactive)"

* * *

- Tested on: NCI-H460 lung
- protocol.text: NCI-60 one-dose screen, 48 h (100 = growth as untreated, 0 = no growth, -100 = all killed)
- applied.conditions: 10 µM
The panel holds about 83,000 compounds, 20% with a hit somewhere; the sample as a whole holds those more often.
assay.endpoint: growth (%)

- molecule: "COc1cc(C2NC(=O)C(C#N)=C(Nc3cccc(C)c3)S2)ccc1O (stereo unspecified)"
  assay.endpoint: "growth"
  value.units: "%"
  recorded.measurement: 99.5
- molecule: "COc1cc(C(=O)N/N=C/c2cccc([N+](=O)[O-])c2)cc(OC)c1OC"
  assay.endpoint: "growth"
  value.units: "%"
  recorded.measurement: 18.5
- molecule: "Cc1ccc(C(=O)N/N=C/c2ccc3c(c2)OCO3)cc1"
  assay.endpoint: "growth"
  value.units: "%"
  recorded.measurement: 96.6
- molecule: "COc1ccc(C2OC(N)=C(O)C2=O)cc1OC (stereo unspecified)"
  assay.endpoint: "growth"
  value.units: "%"
  recorded.measurement: 110
- molecule: "CCCC(=O)Nc1ccc2c(c1)CN1C(=O)c3ccccc3C1=N2"
  assay.endpoint: "growth"
  value.units: "%"
  recorded.measurement: 103
- molecule: "S=C1NCc2cncnc2N1"
  assay.endpoint: "growth"
  value.units: "%"
  recorded.measurement: 106

* * *

- Test system: SF-268 CNS
- protocol.text: NCI-60 one-dose screen, 48 h (100 = growth as untreated, 0 = no growth, -100 = all killed)
- applied.conditions: 10 µM
This is part of a sample that, as a whole, favours compounds with a hit. Of some 83,000 tested, about 20% had one in any assay.
# reported growth; entries follow

- molecule: "CNS(=O)(=O)c1ccc(Cl)c(Cl)c1"
  experimental.system: "SF-268 CNS"
  growth (%): 96.1
- molecule: "Cc1cccc(C(=O)N(C(C)C)C(C)C)c1"
  experimental.system: "SF-268 CNS"
  growth (%): 99
- molecule: "S=c1[nH]ccn1-c1ccccc1Cl"
  experimental.system: "SF-268 CNS"
  growth (%): 108
- molecule: "O=c1c2ccccc2c(Br)c(Br)c2ccccc12"
  experimental.system: "SF-268 CNS"
  growth (%): 110
- molecule: "O=[N+]([O-])c1cccc(C(F)(F)F)c1"
  experimental.system: "SF-268 CNS"
  growth (%): 102
- molecule: "CC1SC(N)=NC1=O (stereo unspecified)"
  experimental.system: "SF-268 CNS"
  growth (%): 110
- molecule: "CC1(O)CCCCC1O (stereo unspecified)"
  experimental.system: "SF-268 CNS"
  growth (%): 106
- molecule: "CN(C)c1ccc(CNC(C(=O)c2ccccc2)c2ccccc2)cc1 (stereo unspecified)"
  experimental.system: "SF-268 CNS"
  growth (%): 96.9
- molecule: "CC(=O)NCc1cc(C)c(C)cc1C"
  experimental.system: "SF-268 CNS"
  growth (%): 95.7
- molecule: "Cc1ccc(C(=O)NC2c3ccccc3Oc3ccccc32)cc1"
  experimental.system: "SF-268 CNS"
  growth (%): 64.1
- molecule: "O=C(NCCNC(=O)c1ccc(Cl)cc1Cl)c1ccc(Cl)cc1Cl"
  experimental.system: "SF-268 CNS"
  growth (%): 99.1
- molecule: "O=[N+]([O-])c1ccccc1N=Nc1ccc(O)cc1O"
  experimental.system: "SF-268 CNS"
  growth (%): 118
- molecule: "O=C1C=C(Nc2ccc([N+](=O)[O-])cc2)c2ccccc2C1=O"
  experimental.system: "SF-268 CNS"
  growth (%): 55.6
- molecule: "CN(C)C(C)(C)CC(C)(C)C"
  experimental.system: "SF-268 CNS"
  growth (%): 103
- molecule: "Cc1cc(C)cc(NCCC#N)c1"
  experimental.system: "SF-268 CNS"
  growth (%): 105
- molecule: "Nc1nc(N)c(N=Nc2ccc(C(=O)O)cc2)c(N)n1"
  experimental.system: "SF-268 CNS"
  growth (%): 107
- molecule: "O=S(=O)(O)C(Nc1ccccc1)c1ccccc1 (stereo unspecified)"
  experimental.system: "SF-268 CNS"
  growth (%): 107
- molecule: "NCCC(=O)c1ccc(Cl)cc1"
  experimental.system: "SF-268 CNS"
  growth (%): 100
- molecule: "O=C(CC(=O)c1ccccc1O)c1ccccc1"
  experimental.system: "SF-268 CNS"
  growth (%): 90.7
- molecule: "COC(=O)C(C)Oc1ccc(OC#N)cc1 (stereo unspecified)"
  experimental.system: "SF-268 CNS"
  growth (%): 98.9
- molecule: "CC(=O)OCC(=O)[C@@]1(O)CC[C@H]2[C@@H]3CC[C@@H]4C[C@H](O)CC[C@]4(C)[C@H]3C(=O)C[C@@]21C"
  experimental.system: "SF-268 CNS"
  growth (%): 102
- molecule: "CCCOC(=O)C(O)c1ccccc1 (stereo unspecified)"
  experimental.system: "SF-268 CNS"
  growth (%): 99.7
- molecule: "C/C(=N\\NC(=O)c1ccccc1N)c1ccccc1O"
  experimental.system: "SF-268 CNS"
  growth (%): 39.3
- molecule: "C/C(O)=C(\\C=N\\C(N)=S)C(=O)Nc1ccccc1"
  experimental.system: "SF-268 CNS"
  growth (%): 101
- molecule: "Nc1ccccc1SC(CC(=O)c1ccccc1)c1c(Cl)cccc1Cl (stereo unspecified)"
  experimental.system: "SF-268 CNS"
  growth (%): 56
- molecule: "N#Cc1ccc(OC(=O)Nc2ccc(Cl)c(Cl)c2)cc1"
  experimental.system: "SF-268 CNS"
  growth (%): 94.4
- molecule: "Cc1ccc(O)c(C(=O)c2ccccc2)c1"
  experimental.system: "SF-268 CNS"
  growth (%): 101
- molecule: "CN(C)Cc1cc(C(C)(C)CC(C)(C)C)ccc1O"
  experimental.system: "SF-268 CNS"
  growth (%): 106
- molecule: "O=[N+]([O-])c1ccc(N=Nc2ccccc2)cc1"
  experimental.system: "SF-268 CNS"
  growth (%): 89.6
- molecule: "O=C(c1ccc(Cl)cc1)c1ccccc1Cl"
  experimental.system: "SF-268 CNS"
  growth (%): 111
- molecule: "O=C(O)C(c1ccccc1)C(O)c1ccccc1 (stereo unspecified)"
  experimental.system: "SF-268 CNS"
  growth (%): 105
- molecule: "CO[C@H]1C[C@@H]2CC[C@@H](C)[C@@](O)(O2)C(=O)C(=O)N2CCCC[C@H]2C(=O)O[C@H]([C@H](C)C[C@@H]2CC[C@@H](O)[C@H](OC)C2)CC(=O)[C@H](C)C=C(C)[C@@H](O)[C@@H](OC)C(=O)[C@H](C)C[C@H](C)/C=C/C=C/C=C1C"
  experimental.system: "SF-268 CNS"
  growth (%): 56.2
- molecule: "c1ccc(/C(=N\\N=C(/c2ccccc2)c2cccs2)c2cccs2)cc1"
  experimental.system: "SF-268 CNS"
  growth (%): 97
- molecule: "COC(=O)CCCCC1=CCC2C(=O)C=C(O)C2C1 (stereo unspecified)"
  experimental.system: "SF-268 CNS"
  growth (%): 104
- molecule: "CC(=O)C1CCCCC1"
  experimental.system: "SF-268 CNS"
  growth (%): 107
- molecule: "O=c1cc(-c2ccccc2)[nH]c2c1CCCC2"
  experimental.system: "SF-268 CNS"
  growth (%): 57.3
- molecule: "O=C1c2ccccc2C(=O)c2c1ccc(C(=O)O)c2[N+](=O)[O-]"
  experimental.system: "SF-268 CNS"
  growth (%): 111
- molecule: "COc1cc(CN)ccc1O"
  experimental.system: "SF-268 CNS"
  growth (%): 100
- molecule: "OCC(O)C(O)C(O)C(O)/C=N/O (stereo unspecified)"
  experimental.system: "SF-268 CNS"
  growth (%): 98
- molecule: "O=C(O)C(O)c1ccccc1 (stereo unspecified)"
  experimental.system: "SF-268 CNS"
  growth (%): 98.8
- molecule: "Cc1ccc(C(O)C2CC2)cc1 (stereo unspecified)"
  experimental.system: "SF-268 CNS"
  growth (%): 108
- molecule: "O=S(=O)(O)CC(O)CN1CCN(CCO)CC1 (stereo unspecified)"
  experimental.system: "SF-268 CNS"
  growth (%): 109
- molecule: "CC(C)OC(C(=O)O)c1ccccc1 (stereo unspecified)"
  experimental.system: "SF-268 CNS"
  growth (%): 104
- molecule: "O=c1[nH][nH]c(=O)c2cc([N+](=O)[O-])ccc12"
  experimental.system: "SF-268 CNS"
  growth (%): 111
- molecule: "COC(=O)/C=C\\C(=O)OC"
  experimental.system: "SF-268 CNS"
  growth (%): 113
- molecule: "Nc1nc2c(c(-c3nc(N)nc4c3CCc3ccccc3-4)n1)CCc1ccccc1-2"
  experimental.system: "SF-268 CNS"
  growth (%): 103
- molecule: "CCOC(=O)C(=O)C=P(c1ccccc1)(c1ccccc1)c1ccccc1"
  experimental.system: "SF-268 CNS"
  growth (%): 97.9
- molecule: "Cc1c(O)cnc2nn(-c3ccccc3)c(=N)n12"
  experimental.system: "SF-268 CNS"
  growth (%): 113
- molecule: "COc1ccc(-c2cc(-c3cc(-c4ccc(OC)cc4)nc(N)n3)nc(N)n2)cc1"
  experimental.system: "SF-268 CNS"
  growth (%): 102
- molecule: "CC(=O)N(C)c1ccc([N+](=O)[O-])cc1"
  experimental.system: "SF-268 CNS"
  growth (%): 116
- molecule: "S=C1CCCCCN1"
  experimental.system: "SF-268 CNS"
  growth (%): 99.6

# credit: PubChem BioAssay (NCI)
